Reported remaining activity at 10 µM is given for each of the following compounds.
- tested on: human GnRH receptor (Homo sapiens, UniProt P30968)
- Construct: expressed in transfected cells; host or cells: HEK 293 (hGnRH-R/293, from Dr. Stuart Sealfon)
- Sequence (P30968 1-328): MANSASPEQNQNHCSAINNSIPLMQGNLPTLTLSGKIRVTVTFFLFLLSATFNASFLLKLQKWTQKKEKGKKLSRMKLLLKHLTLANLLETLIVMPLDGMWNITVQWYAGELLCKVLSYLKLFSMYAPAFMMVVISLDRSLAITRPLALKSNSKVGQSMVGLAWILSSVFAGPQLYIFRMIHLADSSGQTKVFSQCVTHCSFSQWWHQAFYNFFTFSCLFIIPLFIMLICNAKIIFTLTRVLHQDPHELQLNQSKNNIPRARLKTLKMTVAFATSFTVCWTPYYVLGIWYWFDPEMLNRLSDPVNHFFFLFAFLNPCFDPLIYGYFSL
- assay procedure: Radioligand binding, 125I-GnRH-A displacement, membranes of HEK 293 cells with human GnRH receptor
- condition summary: 1 h, substrate remaining; 10 uM compound; closer to zero = closer to 100% inhibition; read-out: S%R 10 uM hGnRHR
Return type: number; implicit unit %.

Below are worked cases with known answers.
| compound | tested on | remaining activity at 10 µM, % |
| --- | --- | --- |
| Cc1cc2c(cc1Cc1ccc(C(=O)Nc3nccs3)o1)C(C)(C)CCC2(C)C [Compound 334] | human GnRH receptor (Homo sapiens, UniProt P30968) | 34 |
| Cc1cc2c(cc1Cc1ccc(C(=O)Nc3ccc(CC#N)cc3)o1)C(C)(C)CCC2(C)C [Compound 347] | human GnRH receptor (Homo sapiens, UniProt P30968) | 2 |
| Cc1cc2c(cc1Cc1ccc(C(=O)Nc3c(C)cccc3C(C)C)o1)C(C)(C)CCC2(C)C [Compound 394] | human GnRH receptor (Homo sapiens, UniProt P30968) | 57 |
| Cc1cc2c(cc1Cc1ccc(C(=O)Nc3cccc(CO)c3)o1)C(C)(C)CCC2(C)C [Compound 322] | human GnRH receptor (Homo sapiens, UniProt P30968) | 4 |
| COc1ccc(NC(=O)c2ccc(Cc3cc4c(cc3C)C(C)(C)CCC4(C)C)o2)cc1F [Compound 381] | human GnRH receptor (Homo sapiens, UniProt P30968) | 34 |
| COc1cccc(NC(=O)c2ccc(Cc3cc4c(cc3C)C(C)(C)CCC4(C)C)o2)c1 [Compound 337] | human GnRH receptor (Homo sapiens, UniProt P30968) | 6 |
| Cc1cc2c(cc1Cc1ccc(C(=O)Nc3ccc4cn[nH]c4c3)o1)C(C)(C)CCC2(C)C [Compound 365] | human GnRH receptor (Homo sapiens, UniProt P30968) | 47 |

// moving on: another record for remaining activity at 10 µM
Q: # get_value(readout='remaining activity at 10 µM', item= Cc1cc2c(cc1Cc1ccc(C(=O)Nc3ccccc3)o1)C(C)(C)CCC2(C)C [Compound 384] )
Result: 21

----------
- assay procedure: Pharmacokinetic studies / bioavailability in rats
- Assay type: in vivo, rat
- condition summary: male, rat, plasma, po, 20 mg/kg, rat male; p.o. 20 mg/kg; vehicle per footnote (DMSO/cremophor/saline)
Reported Tmax is given for each of the following molecules.
Return type: number; implicit unit h.

Below are worked cases with known answers.
| compound smiles | data value |
| --- | --- |
| COc1cc(OC)c(NC(=O)c2ccc(Cc3c(C)cc(C)cc3C)o2)c(OC)c1 | 1 |
| Cc1cc2c(cc1Cc1ccc(C(=O)NCc3cccc(CNc4nccc(NC[C@@H]5CCCO5)n4)c3)o1)C(C)(C)CCC2(C)C | 2 |
| Cc1cc2c(cc1Cc1ccc(C(=O)NCc3cccc(CNc4ccnc(NC[C@@H]5CCCO5)n4)c3)o1)C(C)(C)CCC2(C)C | 2 |
| COc1cc(OC)c(NC(=O)c2ccc(Cc3cc4c(cc3C)C(C)(C)CCC4(C)C)o2)c(OC)c1 | 1 |

Q: # get_value(readout='Tmax', item= COc1cc(OC)c(NC(=O)c2ccc(Cc3cc4c(cc3OC)C(C)(C)CCC4(C)C)o2)c(OC)c1 )
Result: 1

Q: Would you mind doing COc1cccc(OC)c1NC(=O)c1ccc(Cc2cc3c(cc2C)C(C)(C)CCC3(C)C)o1 as well?
Result: 1

Q: Would you mind doing Cc1cc2c(cc1Cc1ccc(C(=O)NCc3nc4ccccc4[nH]3)o1)C(C)(C)CCC2(C)C as well?
Result: 1.5

----------
Quick record of IC50 values for NPY Y1 (Homo sapiens).

Below are worked cases with known answers.
| compound smiles | IC50 |
| --- | --- |
| Cc1cc2c(cc1Cc1ccc(C(=O)NCc3nc4ccccc4[nH]3)o1)C(C)(C)CCC2(C)C | > 10 µM |
| COc1cccc(OC)c1NC(=O)c1ccc(Cc2cc3c(cc2C)C(C)(C)CCC3(C)C)o1 | > 10 µM |
| Cc1cc2c(cc1Cc1ccc(C(=O)NC[C@H]3CC[C@H](CNC(=N)N)CC3)o1)C(C)(C)CCC2(C)C | 9.7 µM |
| Cc1cnc(CNC(=O)c2ccc(Cc3cc4c(cc3C)C(C)(C)CCC4(C)C)o2)cn1 | > 10 µM |

// moving on: another record for IC50
Q: # get_value(readout='IC50', item= Cc1cc2c(cc1Cc1ccc(C(=O)NC[C@H]3CC[C@H](C(=O)O)CC3)o1)C(C)(C)CCC2(C)C )
Result: > 10 µM

----------
Reported pIC50 is given for each of the following compounds.
- tested on: bovine GnRH receptor (Bos taurus)
- Construct: membranes were prepared from bovine pituitary; from tissue; host or cells: bovine pituitary
- Sequence (P32236 whole entry): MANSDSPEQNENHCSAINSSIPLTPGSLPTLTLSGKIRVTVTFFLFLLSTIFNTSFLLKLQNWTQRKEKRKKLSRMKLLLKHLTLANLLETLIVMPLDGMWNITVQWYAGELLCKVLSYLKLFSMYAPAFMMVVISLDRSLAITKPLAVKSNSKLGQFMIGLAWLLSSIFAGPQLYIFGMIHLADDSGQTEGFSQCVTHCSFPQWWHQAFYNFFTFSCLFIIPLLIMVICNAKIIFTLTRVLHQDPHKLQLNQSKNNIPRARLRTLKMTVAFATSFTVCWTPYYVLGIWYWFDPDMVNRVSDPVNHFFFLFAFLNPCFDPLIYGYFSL
- assay procedure: Radioligand binding, 125I-GnRH-A, bovine pituitary membranes
- condition summary: read-out: bGnRH IC50
Remember, pIC50 is on a log scale: it is -log10 of the molar concentration.

Below are worked cases with known answers.
| compound | pIC50 |
| --- | --- |
| Cc1cc2c(cc1Cc1ccc(C(=O)NCc3cccnc3)o1)C(C)(C)CCC2(C)C [Compound 43] | 5.40 |
| COc1ccc(CNC(=O)c2ccc(Cc3cc4c(cc3C)C(C)(C)CCC4(C)C)o2)cc1 [Compound 42] | 5.75 |
| Cc1ccccc1CNC(=O)c1ccc(Cc2cc3c(cc2C)C(C)(C)CCC3(C)C)o1 [Compound 50] | 5.82 |
| COC(=O)c1ccc(OC)c(NC(=O)c2ccc(Cc3cc4c(cc3C)C(C)(C)CCC4(C)C)o2)c1 [Compound 72] | 5.84 |
| Cc1cc2c(cc1Cc1ccc(C(=O)NCCOc3ccccc3)o1)C(C)(C)CCC2(C)C [Compound 47] | 5.72 |
| CC(=O)c1cccc(NC(=O)c2ccc(Cc3cc4c(cc3C)C(C)(C)CCC4(C)C)o2)c1 [Compound 19] | 6.22 |

Q: API: value(readout=pIC50, system=bovine GnRH receptor (Bos taurus)) for record Cc1cc2c(cc1Cc1ccc(C(=O)Nc3cccc4ncccc34)o1)C(C)(C)CCC2(C)C [Compound 64]
Result: 6.42

Q: Would you mind doing Cc1cc2c(cc1Cc1ccc(C(=O)NCc3cccc(CNC(=N)N)c3)o1)C(C)(C)CCC2(C)C [Compound 24] as well?
Result: 6.12

----------
Reported Human pmol/min/mg 1 μM is given for each of the following compounds.
- assay procedure: Metabolism rate, pmol/min/mg at 1 μM, human
- Type: in vitro ADME
- condition summary: 1 μM compound
Return type: number; implicit unit pmol/min/mg.

Below are worked cases with known answers.
| compound | result unit | Human pmol/min/mg 1 μM |
| --- | --- | --- |
| COc1ccc(NC(=O)c2ccc(Cc3cc4c(cc3C)C(C)(C)CCC4(C)C)o2)c(OC)c1 [Compound 99] | pmol/min/mg | 353 |
| COc1ccc(CNC(=O)c2ccc(Cc3cc4c(cc3C)C(C)(C)CCC4(C)C)o2)c(OC)c1 [Compound 56] | pmol/min/mg | 392 |
| COc1ccc(CNC(=O)c2ccc(Cc3cc4c(cc3C)C(C)(C)CCC4(C)C)o2)cc1 [Compound 42] | pmol/min/mg | 361 |
| Cc1ccc(C(C)(C)C)cc1Cc1ccc(C(=O)Nc2ccc3[nH]ccc3c2)o1 [Compound 207] | pmol/min/mg | 157 |
| COc1cc(OC)c(NC(=O)c2ccc(Cc3cc4c(cc3C)OCCC4(C)C)o2)c(OC)c1 [Compound 221] | pmol/min/mg | 116 |

Q: # get_value(readout='Human pmol/min/mg 1 μM', item= COc1cc(OC)c(NC(=O)c2ccc(Cc3c(C)ccc4c3OCCC4(C)C)o2)c(OC)c1 [Compound 222] )
Result: 115

----------
- assay procedure: Pharmacokinetic studies / bioavailability in rats
- Format: in vivo, rat
- condition summary: rat female; 5 mg/ml solution in 10% DMSO 10% cremophor 80% saline
measured metric: Fp.o.

| compound smiles | Fp.o. |
| --- | --- |
| COc1cc(OC)c(NC(=O)c2ccc(Cc3cc(C(C)(C)C)ccc3C)o2)c(OC)c1 | 33% (10 mg/kg)^10 |
| Cc1cc2c(cc1Cc1ccc(C(=O)NCc3ccc(CNc4ncccn4)cc3)o1)C(C)(C)CCC2(C)C | 1% (10 mg/kg)^10 |
| Cc1ccc(C(C)(C)C)cc1Cc1ccc(C(=O)NCc2cccc(CNc3ccnc(NC[C@H]4CCCO4)n3)c2)o1 | 1% (10 mg/kg)^10 |

// moving on: another record for Fp.o.
Q: # get_value(readout='Fp.o.', item= COc1cc(OC)c(NC(=O)c2ccc(Cc3cc4c(cc3C)C(C)(C)CC4(C)C)o2)c(OC)c1 )
Result: 10% (10 mg/kg)^10
